Tested on: Fibroblast
Experiment: Multiplex assay against human fibroblast
Assay type: toxicity, cell-based
Conditions: 24 h, 1 µM, compound concentration 1 uM, number of replicates 2
Could you please report measured Population Membrane Permeable-Phenotype (%) for the items listed next?
State the answer as a number, implicitly in %.

What measured Population Membrane Permeable-Phenotype (%) goes with COC(=O)Nc1nc2c(s1)-c1c(c(-c3cccnc3)nn1-c1ccc(C3(N(C)C)CC3)cc1)CC2.Cl.Cl ? 4

What measured Population Membrane Permeable-Phenotype (%) goes with CN(C)CCCNc1ccnc(Nc2cccc(Cl)c2)n1 ? 4

What measured Population Membrane Permeable-Phenotype (%) goes with O=C(Nc1ccnc(NC(=O)C2CC2)c1)c1c(Cl)cccc1Cl ? 7

* * *

Could you please report measured Population Mitochondria Different-Phenotype (%) for the items listed next?
Tested on: Fibroblast
Assay: Multiplex assay against human fibroblast
Format: toxicity, cell-based
Conditions: 48 h, 10 µM, compound concentration 10 uM, number of replicates 2
State the answer as a number, implicitly in %.

What measured Population Mitochondria Different-Phenotype (%) goes with Cn1cc(-c2ccc(-c3cncc(Cl)c3N3CCC4(CCNC4=O)CC3)cc2)cn1 ? 11

What measured Population Mitochondria Different-Phenotype (%) goes with CC(C)c1cc(-c2ccc(F)c3ccccc23)nc(N)n1 ? 0

What measured Population Mitochondria Different-Phenotype (%) goes with C=CC(=O)Nc1cccc(C)c1Nc1ncc2cc(-c3c(Cl)c(OC)cc(OC)c3Cl)ccc2n1 ? 4

What measured Population Mitochondria Different-Phenotype (%) goes with CCN1C(=O)N(c2c(F)c(OC)cc(OC)c2F)Cc2cnc3[nH]c(CN4CCOCC4)cc3c21 ? 1

What measured Population Mitochondria Different-Phenotype (%) goes with O=C(Nc1ccnc(NC(=O)C2CC2)c1)c1c(Cl)cccc1Cl ? 0

What measured Population Mitochondria Different-Phenotype (%) goes with O=C1NC(=O)C(c2ccccc2[N+](=O)[O-])=C1Nc1ccc(O)c(Cl)c1 ? 0

What measured Population Mitochondria Different-Phenotype (%) goes with COc1ccccc1-c1cc(Nc2cccc(CS(N)(=O)=O)c2)ncn1 ? 1
